All figures here come from patent US8846696B2.

# Test system: Human tumour cell lines: A549, HT29, Saos-2
# protocolDetails: 72-h MTT cytotoxicity assay, tumour cell lines A549, HT29, Saos-2
# Format: cell-based
# testConditions: ratio to roscovitine
Listing of recorded C: IC50 cytotox. roscovitine/IC50 cytotox. compound by entry.
quantityKind: C: IC50 cytotox. roscovitine/IC50 cytotox. compound

# molecule, readoutValue
measured = [
    ("CC[C@H](Nc1nc(NCc2cccnc2)c2ncn(C(C)C)c2n1)C(C)(C)O", 2.9),
    ("CCC(O)[C@H](CC)Nc1nc(NCc2cccnc2)c2ncn(C(C)C)c2n1 (mixture of isomers)", 2.1),
    ("CC[C@H](Nc1nc(NCc2cccnc2)c2ncn(C(C)C)c2n1)C(O)C(C)(C)C (mixture of isomers)", 0.8),
    ("CCC(O)[C@@H](CC)Nc1nc(NCc2cccnc2)c2ncn(C(C)C)c2n1 (mixture of isomers)", 1.1),
    ("CC[C@@H](Nc1nc(NCc2cccnc2)c2ncn(C(C)C)c2n1)C(C)(C)O", 2.1),
]
